Target: Cannabinoid receptor 2 (Homo sapiens, UniProt P34972)
Sequence (P34972 whole entry): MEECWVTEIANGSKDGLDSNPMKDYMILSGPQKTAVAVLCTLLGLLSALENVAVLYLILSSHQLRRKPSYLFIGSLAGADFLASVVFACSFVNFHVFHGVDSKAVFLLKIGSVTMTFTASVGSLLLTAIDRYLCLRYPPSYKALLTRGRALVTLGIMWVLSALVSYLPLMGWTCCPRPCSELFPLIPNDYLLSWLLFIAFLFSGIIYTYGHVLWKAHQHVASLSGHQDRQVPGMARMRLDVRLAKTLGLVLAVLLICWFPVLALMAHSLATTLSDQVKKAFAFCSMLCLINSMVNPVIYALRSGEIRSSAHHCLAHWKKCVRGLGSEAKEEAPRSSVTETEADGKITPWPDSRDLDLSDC
Assay: cAMP Assay
Details: 37 °C
OBSERVATION_TYPE: EC50

1. CC(C)(CO)NC(=O)c1ccc(NC2CC2)c(OCC2CC2)n1
780 nM
2. Cc1cnc(C(C)(C)NC(=O)c2ccc(N3CC(F)(F)C3)c(OCC3CC3)n2)s1
4.9 nM
3. O=C(c1ccc(C2CCCC2)c(OCC2CC2)n1)N1CCS(=O)(=O)CC1
303 nM
4. O=C(c1ccc(C2CC2)c(-c2cccc(Cl)c2)n1)N1CCS(=O)(=O)CC1
477 nM
